pIC50: −log10 of the molar value.
pIC50, UniProtKB P07711: measured values
Sequence (P07711 114-333, species assumed): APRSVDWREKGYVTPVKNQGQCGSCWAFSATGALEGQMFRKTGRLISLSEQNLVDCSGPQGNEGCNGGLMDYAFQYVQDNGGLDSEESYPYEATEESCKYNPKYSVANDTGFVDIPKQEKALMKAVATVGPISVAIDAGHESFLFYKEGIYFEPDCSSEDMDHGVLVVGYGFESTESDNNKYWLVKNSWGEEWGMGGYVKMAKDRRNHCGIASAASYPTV
Measure name: pIC50

>>> value_observed("CC(C)(C)OC(=O)N[C@@H](Cc1cccnc1)C(=O)N[C@]1(C)C(=O)N[C@H]1Oc1ccccc1 [Example 12]")
5.64
>>> value_observed("C[C@@]1(NC(=O)[C@H](Cc2ccccc2)NC(=O)CCc2ccccc2)C(=O)N[C@H]1Oc1cccc(C(=O)OC(c2ccccc2)c2ccccc2)c1 [Example 18]")
5.13
>>> value_observed("CC(C)(C)OC(=O)N[C@@H](Cc1cccnc1)C(=O)N[C@]1(C)C(=O)N[C@@H]1Oc1ccccc1 [Example 14]")
6.35

###

Reported IC50 values are given for each entry in this list.
# Test system: Cathepsin S (Homo sapiens, UniProt P25774)
# Sequence (P25774 115-331, species assumed): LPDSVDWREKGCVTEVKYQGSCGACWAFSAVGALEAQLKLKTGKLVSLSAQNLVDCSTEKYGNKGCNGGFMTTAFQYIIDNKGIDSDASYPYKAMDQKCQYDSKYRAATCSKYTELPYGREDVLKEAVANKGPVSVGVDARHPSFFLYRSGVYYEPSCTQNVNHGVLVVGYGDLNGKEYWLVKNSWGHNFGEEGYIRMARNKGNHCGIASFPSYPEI
Measure name: IC50 (µM)

>>> value_observed("CC(C)(C)OC(=O)N[C@@H](Cc1cccnc1)C(=O)N[C@]1(C)C(=O)N[C@H]1Oc1ccccc1")
1.8
>>> value_observed("CC(C)(C)OC(=O)N[C@@H](Cc1cccnc1)C(=O)N[C@]1(C)C(=O)N[C@@H]1Oc1ccccc1")
0.05

###

Reported IC50 values are given for each entry in this list.
Target sequence: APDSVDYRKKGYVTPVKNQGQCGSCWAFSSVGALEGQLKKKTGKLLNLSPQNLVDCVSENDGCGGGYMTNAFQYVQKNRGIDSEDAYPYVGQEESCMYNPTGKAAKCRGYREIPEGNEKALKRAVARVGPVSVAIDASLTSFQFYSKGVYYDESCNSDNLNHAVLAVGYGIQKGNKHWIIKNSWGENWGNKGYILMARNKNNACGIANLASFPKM
Measure name: IC50 (µM)

>>> value_observed("CC(C)(C)OC(=O)N[C@@H](Cc1cccnc1)C(=O)N[C@]1(C)C(=O)N[C@@H]1Oc1ccccc1")
1.34
>>> value_observed("CC(C)(C)OC(=O)N[C@@H](Cc1cccnc1)C(=O)N[C@]1(C)C(=O)N[C@H]1Oc1ccccc1")
7.74

###

IC50, Cathepsin B (Homo sapiens): measured values
Measure name: IC50 (µM)

>>> value_observed("CC(=O)O[C@@H]1NC(=O)[C@@]1(C)NC(=O)[C@H](Cc1ccccc1)NC(=O)CCc1ccccc1 [Example 4]")
10
>>> value_observed("C[C@@]1(NC(=O)[C@H](CC2CCCCC2)NC(=O)CCCCCNC(=NC(=O)OCc2ccccc2)NC(=O)OCc2ccccc2)C(=O)N[C@H]1Oc1ccccc1 [Example 7]")
26.2
>>> value_observed("CC(C)(C)OC(=O)N[C@@H](Cc1cccnc1)C(=O)N[C@]1(C)C(=O)N[C@@H]1Oc1ccccc1 [Example 14]")
0.36
>>> value_observed("CC(C)(C)OC(=O)N[C@@H](Cc1cccnc1)C(=O)N[C@]1(C)C(=O)N[C@H]1Oc1ccccc1 [Example 12]")
11.3
